# assayDetails: SPR (Biocore T100) binding affinity to sLeA
# settings: Example 3, Table 7, mean
Reported Kd is given for each of the following molecules.
recordedMetric: Kd

INSERT INTO assay_data (molecule, testresult) VALUES
  ('Clone 4768: Humanized IgG1 antibody, heavy chain variable region HvCh2 (SEQ ID NO: 2), light chain LiCh4 (SEQ ID NO: 8) (antibody, V domains shown) VH: EVQLVESGGGLVQPGGSLRLSCAASGFTFSTNAMSWVRQAPGKGLEWVARLRPKSDNYATYYADSVKGRFTISRDNSKNTLYLQMNSLRAEDTAVYYCVTGTGFWGQGTTLTVSS VL: DIVMTQSPDSLAVSLGERVTMNCKSSQSLLNSGNQKNYLTWYQQKPGQPPKLLFYWTSTRESGVPDRFSGSGSGTDFTLTISSVQAEDVAVYYCQNDYTSPYTFGQGTKLEIK', '552 µM'),
  ('Clone 4770: Humanized IgG1 antibody, heavy chain variable region HvCh3 (SEQ ID NO: 3), light chain LiCh2 (SEQ ID NO: 6) (antibody, V domains shown) VH: EVQLVESGGGLVQPGGSLRLSCAASGFTFSTNAMSWVRQAPGKGLEWVARLRPKSDNYATYYADSVKGRFTISRDDSKNTLYLQMNSLRAEDTAVYYCVTGTGFWGQGTTLTVSS VL: DIVMTQSPDSLAVSLGERVTMNCKSSQSLLNSGNQKNYLTWYQQKPGQPPKLLIYWTSTRESGVPDRFSGSGSGTDFTLTISSVQAEDVAVYYCQNDYTSPYTFGQGTKLEIK', '69.1 µM'),
  ('Clone 4772: Humanized IgG1 antibody, heavy chain variable region HvCh3 (SEQ ID NO: 3), light chain LiCh4 (SEQ ID NO: 8) (antibody, V domains shown) VH: EVQLVESGGGLVQPGGSLRLSCAASGFTFSTNAMSWVRQAPGKGLEWVARLRPKSDNYATYYADSVKGRFTISRDDSKNTLYLQMNSLRAEDTAVYYCVTGTGFWGQGTTLTVSS VL: DIVMTQSPDSLAVSLGERVTMNCKSSQSLLNSGNQKNYLTWYQQKPGQPPKLLFYWTSTRESGVPDRFSGSGSGTDFTLTISSVQAEDVAVYYCQNDYTSPYTFGQGTKLEIK', '48.3 µM');
